The origin of these recorded values is the supplement of paper PMC10567573.

Hi there, I'd appreciate the recorded protein stability index for every entry that follows.
B1: STEAP1 (parent)
chain: LWKMKPRRNLEEDDYLHKDTGETS

- Variants of: B1
- Measurement description: protein stability index of a GFP-peptide fusion (GPS, HEK-293T) (PSI 1-6); higher = more stable;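 also: lentivirally expressed fusions sorted by FACS into six bins by GFP to DsRed ratio, PSI derived from sequencing read proportions per bin multiplied by bin number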
- Condition summary: c terminus: a fixed tail appended
One number for each entry.

Variant annotation: K18D
Numeric value: 4.7
--
Variant annotation: R7K
Numeric value: 4.69
--
Variant annotation: R8V
Numeric value: 4.08
--
Variant annotation: L1H
Numeric value: 4.92
--
Variant annotation: N9F
Numeric value: 4.06
--
Variant annotation: N9T
Numeric value: 4.49
--
Variant annotation: N9R
Numeric value: 4.23
--
Variant annotation: L10P
Numeric value: 4.86

Each variant below has a reported value. Please supply its protein stability index.
1. L10C
2. K3Q
3. L16A
4. K3V
5. N9E

1. 3.9
2. 4.88
3. 4.74
4. 3.67
5. 4.49

Each variant below has a reported value. Please supply its protein stability index.
1. W2V
2. W2N
3. Y15V
4. L16H
5. E11F
6. P6C

[4.99, 4.82, 5.07, 4.36, 3.61, 3.52]

Each variant below has a reported value. Please supply its protein stability index.
1. E11P
2. K3W
3. L16N
4. W2Y
5. E22V
6. G21T

1: 4.2; 2: 3.27; 3: 4.97; 4: 4.92; 5: 3.86; 6: 4.49

Each variant below has a reported value. Please supply its protein stability index.
1. G21W
2. T20A
3. W2R

1: 3.15; 2: 4.39; 3: 4.83
